Parameter: AUC(0-t). Scope: all listed entries.
Assay: In vivo pharmacokinetic study in rats
Settings: rat, plasma, po, 5 mg/kg i.g.
Express the result in ng·h/mL but write the number alone.

Task: Would you mind telling me what AUC(0-t) value was observed for CC(C)(O)COc1ccc2c(Oc3ccc(Nc4nccc5[nH]cc(-c6ccc(F)cc6)c(=O)c45)cc3F)ccnc2c1 ?
Result: 41300

Task: What does the data say about its AUC(0-t)? Entry: O=c1c(-c2ccc(F)cc2)c[nH]c2ccnc(Nc3ccc(Oc4ccnc5cc(OCCO)ccc45)c(F)c3)c12 [Comparative compound C, reference compound]
Result: 1850

* * *

Assay: In vivo pharmacokinetic study in rats
Conditions: rat, plasma, po, 5 mg/kg i.g.
List of half-life values.
Write the answer as a number in h, unit excluded.

>>> experimental_result("CC(C)(O)COc1ccc2c(Oc3ccc(Nc4nccc5[nH]cc(-c6ccc(F)cc6)c(=O)c45)cc3F)ccnc2c1")
8.37

Task: // lookup half-life for O=c1c(-c2ccc(F)cc2)c[nH]c2ccnc(Nc3ccc(Oc4ccnc5cc(OCCO)ccc45)c(F)c3)c12 [Comparative compound C, reference compound]
Result: 2.14

* * *

Biological target: c-Met (h) (Homo sapiens (Human))
Sequence (P08581 25-1390): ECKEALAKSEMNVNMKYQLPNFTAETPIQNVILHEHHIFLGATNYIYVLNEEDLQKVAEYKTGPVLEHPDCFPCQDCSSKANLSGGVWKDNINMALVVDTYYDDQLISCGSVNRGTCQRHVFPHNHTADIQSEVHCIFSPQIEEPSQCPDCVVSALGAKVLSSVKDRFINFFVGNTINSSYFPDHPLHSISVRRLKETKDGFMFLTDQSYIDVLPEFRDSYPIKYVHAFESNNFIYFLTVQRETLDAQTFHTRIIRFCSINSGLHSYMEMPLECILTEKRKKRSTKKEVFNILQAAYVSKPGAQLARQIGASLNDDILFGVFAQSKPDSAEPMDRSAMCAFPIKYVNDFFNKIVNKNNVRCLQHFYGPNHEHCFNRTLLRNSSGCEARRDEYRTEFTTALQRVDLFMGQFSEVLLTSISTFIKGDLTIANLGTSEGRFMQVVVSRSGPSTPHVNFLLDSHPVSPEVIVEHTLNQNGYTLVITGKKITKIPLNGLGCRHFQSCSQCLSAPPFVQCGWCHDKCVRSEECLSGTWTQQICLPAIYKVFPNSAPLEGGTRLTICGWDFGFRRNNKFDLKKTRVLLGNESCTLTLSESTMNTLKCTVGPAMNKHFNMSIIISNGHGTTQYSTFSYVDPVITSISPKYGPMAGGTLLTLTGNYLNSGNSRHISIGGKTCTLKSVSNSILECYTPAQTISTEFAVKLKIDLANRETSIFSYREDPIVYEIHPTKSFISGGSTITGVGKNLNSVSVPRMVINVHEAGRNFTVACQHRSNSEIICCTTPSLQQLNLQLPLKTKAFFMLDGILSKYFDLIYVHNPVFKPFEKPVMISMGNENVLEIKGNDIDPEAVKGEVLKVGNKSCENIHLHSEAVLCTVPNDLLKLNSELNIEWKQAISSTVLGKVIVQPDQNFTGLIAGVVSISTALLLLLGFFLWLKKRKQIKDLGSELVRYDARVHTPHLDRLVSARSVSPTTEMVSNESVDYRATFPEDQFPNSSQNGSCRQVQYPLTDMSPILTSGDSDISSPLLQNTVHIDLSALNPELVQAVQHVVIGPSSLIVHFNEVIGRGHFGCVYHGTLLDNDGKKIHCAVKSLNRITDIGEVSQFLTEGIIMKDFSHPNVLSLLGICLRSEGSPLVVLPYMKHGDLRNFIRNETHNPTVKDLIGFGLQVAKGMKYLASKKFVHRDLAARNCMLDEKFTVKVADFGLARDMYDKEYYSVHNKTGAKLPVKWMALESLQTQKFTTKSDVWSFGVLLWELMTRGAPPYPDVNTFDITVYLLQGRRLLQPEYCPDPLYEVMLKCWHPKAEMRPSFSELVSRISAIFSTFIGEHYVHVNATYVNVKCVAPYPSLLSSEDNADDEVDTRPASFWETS
Assay: HTRF KinEASE TK kinase inhibition assay, c-Met
Assay type: biochemical
This listing pairs compounds with measured IC50.
Output spec: scalar in nM, unitless text.

Guide cases for IC50, answers given:
>>> experimental_result("COc1cc2nccc(Oc3ccc(Nc4nccc5[nH]cc(-c6ccccc6)c(=O)c45)cc3F)c2cc1OCC(C)(C)O")
13.3
>>> experimental_result("CC(C)n1cc(-c2ccc(F)cc2)c(=O)c2c(Nc3ccc(Oc4ccnc5cc(OCC(C)(C)O)ccc45)c(F)c3)nccc21")
9

Task: Entry under review: CC(C)(O)COc1ccc2c(Oc3ccc(Nc4nccc5[nH]cc(-c6cccc(F)c6)c(=O)c45)cc3F)ccnc2c1 . Reported IC50?
Result: 7.9

Task: # query: IC50 of entry COc1cc2nccc(Oc3ccc(Nc4nccc5[nH]cc(-c6ccc(F)cc6)c(=O)c45)cc3F)c2cc1OCC(C)(C)O
Result: 16.8

Task: Item under review: CC(C)(O)COc1ccc2c(Oc3ccc(Nc4nccc5c4c(=O)c(-c4ccc(F)cc4)cn5CC4CO4)cc3F)ccnc2c1 (stereo not shown) . Reported IC50?
Result: 22.4

Task: Entry CC(C)(O)COc1ccc2c(Oc3ccc(Nc4nccc5[nH]cc(-c6ccccc6F)c(=O)c45)cc3F)ccnc2c1 : reported IC50 = ?
Result: 9.4

Task: // query IC50 value for entry CCCn1cc(-c2ccc(F)cc2)c(=O)c2c(Nc3ccc(Oc4ccnc5cc(OCC(C)(C)O)ccc45)c(F)c3)nccc21
Result: 7.2
